protocol-details: Solubility of apomorphine in phosphate buffers at varying pH (Example 14)
Format: physicochemical
experimental-setup: phosphate buffer, pH 6.8, aqueous buffer, thermodynamic from solid, pH 6.80 phosphate buffer, stirred ~18 hours; read-out: solubility
Where a name gives a salt, the structure may show the parent alone.
attribute-measured: solubility (µg/mL)
Give the number; µg/mL is assumed, so skip it.

Challenge: Which value of solubility has been reported for CN1CCc2cccc3c2[C@H]1Cc1ccc(O)c(O)c1-3 [Apomorphine HCl, apomorphine hydrochloride] in the records?
Response given: 1400

====

protocol-details: Solubility of apomorphine in phosphate buffers at varying pH (Example 14)
Type: physicochemical
experimental-setup: pH 8.00 phosphate buffer, stirred ~18 hours; hydrochloride; unit assumed
Counter-ions that a name gives are not always drawn.
attribute-measured: solubility (µg/mL)
Kindly answer with a numeric value in µg/mL, unit omitted.

Challenge: For the compound shown here, CN1CCc2cccc3c2[C@H]1Cc1ccc(O)c(O)c1-3 [Apomorphine HCl, apomorphine hydrochloride] , give the reported solubility.
Response given: 270

====

protocol-details: Solubility of apomorphine in phosphate buffers at varying pH (Example 14)
Format: physicochemical
experimental-setup: phosphate buffer, pH 7.4, aqueous buffer, thermodynamic from solid, pH 7.40 phosphate buffer, stirred ~18 hours; read-out: solubility
Counter-ions that a name gives are not always drawn.
attribute-measured: solubility (µg/mL)
Provide the reading as a plain figure in µg/mL.

Challenge: # solubility lookup, item CN1CCc2cccc3c2[C@H]1Cc1ccc(O)c(O)c1-3 [Apomorphine HCl, apomorphine hydrochloride]
Response given: 610

====

protocol-details: Solubility of apomorphine in phosphate buffers at varying pH (Example 14)
Assay type: physicochemical
experimental-setup: pH 6.20 phosphate buffer, stirred ~18 hours; unit assumed
attribute-measured: solubility (µg/mL)
Express your answer in µg/mL, writing the number without its unit.

Challenge: For the compound CN1CCc2cccc3c2[C@H]1Cc1ccc(O)c(O)c1-3 [Apomorphine Free Base, 6αβ-aporphine-10, 11 diol] , what solubility is on record?
Response given: 1700

====

protocol-details: Solubility of apomorphine in phosphate buffers at varying pH (Example 14)
Format: physicochemical
experimental-setup: pH 4.00 phosphate buffer, stirred ~18 hours; unit assumed
attribute-measured: solubility (µg/mL)
Numbers only; they are read as µg/mL.

Challenge: I have this compound here, CN1CCc2cccc3c2[C@H]1Cc1ccc(O)c(O)c1-3 [Apomorphine Free Base, 6αβ-aporphine-10, 11 diol] , and I need its recorded solubility.
Response given: 2700

====

protocol-details: Solubility of apomorphine in phosphate buffers at varying pH (Example 14)
Assay type: physicochemical
experimental-setup: pH 6.40 phosphate buffer, stirred ~18 hours; hydrochloride; unit assumed
Where a name gives a salt, the structure may show the parent alone.
attribute-measured: solubility (µg/mL)
Give just the numeric value; µg/mL need not be written.

Challenge: Given the compound CN1CCc2cccc3c2[C@H]1Cc1ccc(O)c(O)c1-3 [Apomorphine HCl, apomorphine hydrochloride] , what is its reported solubility?
Response given: 3700

====

protocol-details: Solubility of apomorphine in phosphate buffers at varying pH (Example 14)
Type: physicochemical
experimental-setup: pH 6.40 phosphate buffer, stirred ~18 hours; unit assumed
attribute-measured: solubility

Challenge: If you can, please state the reported solubility value of CN1CCc2cccc3c2[C@H]1Cc1ccc(O)c(O)c1-3 [Apomorphine Free Base, 6αβ-aporphine-10, 11 diol] .
Response given: 1700 µg/mL

====

protocol-details: Solubility of apomorphine in phosphate buffers at varying pH (Example 14)
Format: physicochemical
experimental-setup: phosphate buffer, pH 7, aqueous buffer, thermodynamic from solid, pH 7.00 phosphate buffer, stirred ~18 hours; read-out: solubility
Structures can show the parent of a compound that is named as a salt.
attribute-measured: solubility

Challenge: What value of solubility has been reported for the following compound? CN1CCc2cccc3c2[C@H]1Cc1ccc(O)c(O)c1-3 [Apomorphine HCl, apomorphine hydrochloride]
Response given: 1 mg/mL
